Target: T1, ROR1 Ig-like domain (human, UniProt Q01973 42-147)
T1 construct: also called Acro Cat. No. RO1-H5221
T1 sequence (Q01973 42-147): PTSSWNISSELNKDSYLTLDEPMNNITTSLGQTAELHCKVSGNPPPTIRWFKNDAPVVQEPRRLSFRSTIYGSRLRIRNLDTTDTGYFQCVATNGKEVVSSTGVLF
Assay: BLI, IgG1 on biosensor, soluble ROR1 domain

Binder	binding result
I2C-24 IgG1 (antibody, V domains shown, human IgG1) VH: EVQLVESGGGLVQPGGSLRLSCAASGFTFSRYYIHWVRQAPGKGLEWVADIDSYGGFTYYADSVKGRFTISADTSKNTAYLQMNSLRAEDTAVYYCARAHRFLQGGYVLDYWGQGTLVTVSS VL: DIQMTQSPSSLSASVGDRVTITCRASQSVSSAVAWYQQKPGKAPKLLIYSASSLYSGVPSRFSGSRSGTDFTLTISSLQPEDFATYYCQQYSWGLWTFGQGTKVEIK	binds
I2C-14 IgG1 (antibody, V domains shown, human IgG1) VH: EVQLVESGGGLVQPGGSLRLSCAASGFTFESYDIHWVRQAPGKGLEWVAAIFSYGGYTTYADSVKGRFTISADTSKNTAYLQMNSLRAEDTAVYYCARGSYGDGRGMDYWGQGTLVTVSS VL: DIQMTQSPSSLSASVGDRVTITCRASQSVSSAVAWYQQKPGKAPKLLIYSASSLYSGVPSRFSGSRSGTDFTLTISSLQPEDFATYYCQQYYYWPGTFGQGTKVEIK	binds
